System: breast cancer (MCF-7) cell line
assay overview: MTT cytotoxicity assay, MCF-7
experimental context: Conc. 10 (µM per method); Table S2
Overview of reported Cell viability percentage, MCF-7 across a group of molecules:

CC1=[N+]([O-])C(c2ccccc2)Nc2c(I)cc(Br)cc21 (centres unmarked) [Compound 3i]	22,1058%

Now let's try a different one.
Measured Cell viability percentage, MCF-7, COc1ccc(C2Nc3ccc(I)cc3C(C)=[N+]2[O-])cc1 (centres unmarked) [Compound 3h] : 43,1304%

###

assay target: human α-amylase (Homo sapiens)
Sequence (P04746 16-511): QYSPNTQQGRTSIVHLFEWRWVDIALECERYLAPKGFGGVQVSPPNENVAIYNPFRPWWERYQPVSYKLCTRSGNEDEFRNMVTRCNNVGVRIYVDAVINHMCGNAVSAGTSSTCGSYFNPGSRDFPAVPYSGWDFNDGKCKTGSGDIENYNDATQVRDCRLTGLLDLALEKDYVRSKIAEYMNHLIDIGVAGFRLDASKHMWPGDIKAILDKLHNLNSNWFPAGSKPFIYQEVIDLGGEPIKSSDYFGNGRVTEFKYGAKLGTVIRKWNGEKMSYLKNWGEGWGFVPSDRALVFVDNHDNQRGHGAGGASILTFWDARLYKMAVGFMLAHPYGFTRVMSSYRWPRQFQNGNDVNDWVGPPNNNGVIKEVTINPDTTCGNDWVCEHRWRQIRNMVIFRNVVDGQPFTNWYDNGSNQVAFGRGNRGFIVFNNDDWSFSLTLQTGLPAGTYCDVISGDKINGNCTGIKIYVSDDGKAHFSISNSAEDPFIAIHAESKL
Collected pIC50 values appear next to each entry.
# pIC50 = -log10(concentration in molar units)

CC1=[N+]([O-])C(c2ccc(F)cc2)Nc2c(Br)cc(I)cc21 (stereo not shown)	5.33

get_value(item= CC1=[N+]([O-])C(c2ccccc2)Nc2c(Br)cc(I)cc21 (stereo not shown) , readout=pIC50) returns 4.78

Consider CC1=[N+]([O-])C(c2ccc(Cl)cc2)Nc2c(I)cc(Br)cc21 (stereo not shown) . Its measured pIC50 is 5.35

pIC50 reading for CC1=[N+]([O-])C(c2ccc(Cl)cc2)Nc2c(Br)cc(I)cc21 (stereo not shown) : 4.31

So for COc1ccc(C2Nc3ccc(I)cc3C(C)=[N+]2[O-])cc1 (stereo not shown) , the logged pIC50 turned out to be 4.25

Measured pIC50, CC1=[N+]([O-])C(c2ccccc2)Nc2ccc(Br)cc21 (stereo not shown) : 5.27

###

System: lung cancer (A549) cell line
assay overview: MTT cytotoxicity assay, A549
experimental context: read-out: IC50 A549; MTT; mean ± SD, triplicate; 1-50 µM
quantity kind: pIC50
Units for pIC50: none; it is -log10 of a concentration expressed in mol/L.

Item: CC1=[N+]([O-])C(c2ccc(Cl)cc2)Nc2ccc(I)cc21 (racemic) [Compound 3g] | pIC50: 4.73

###

assay target: α-Glucosidase type 1 from baker's yeast (Saccharomyces cerevisiae)
Construct: purchased Sigma Aldrich (Pty) Ltd. G5003
Sequence (P53341 whole entry): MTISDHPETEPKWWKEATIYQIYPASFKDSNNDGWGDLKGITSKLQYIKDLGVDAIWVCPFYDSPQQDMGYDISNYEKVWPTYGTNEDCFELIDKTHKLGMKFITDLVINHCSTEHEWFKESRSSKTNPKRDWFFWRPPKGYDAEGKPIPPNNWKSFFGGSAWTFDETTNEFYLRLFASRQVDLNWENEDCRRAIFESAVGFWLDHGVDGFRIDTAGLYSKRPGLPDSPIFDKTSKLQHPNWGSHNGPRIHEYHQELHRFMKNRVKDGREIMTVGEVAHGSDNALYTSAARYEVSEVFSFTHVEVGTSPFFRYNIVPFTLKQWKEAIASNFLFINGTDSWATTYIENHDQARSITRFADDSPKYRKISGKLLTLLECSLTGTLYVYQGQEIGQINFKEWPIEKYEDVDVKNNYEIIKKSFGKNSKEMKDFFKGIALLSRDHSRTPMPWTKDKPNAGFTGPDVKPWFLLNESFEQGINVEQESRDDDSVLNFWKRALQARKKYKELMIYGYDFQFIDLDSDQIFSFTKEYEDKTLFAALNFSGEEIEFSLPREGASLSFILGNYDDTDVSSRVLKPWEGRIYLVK
assay overview: biochemical
experimental context: IC50 α-Glucosidase, mean ± SD, triplicate; tested at 1, 5, 10, 25, 50 µM
pIC50: −log10 of the molar value.
Would you please tag the item True when its pIC50 is 5 or above, and False when it is below?

CC1=[N+]([O-])C(c2ccc(F)cc2)Nc2c(I)cc(Br)cc21 (stereo not drawn)	False
CC1=[N+]([O-])C(c2ccccc2)Nc2ccc(I)cc21 (stereo not drawn)	True

Test whether the compound CC1=[N+]([O-])C(c2ccc(F)cc2)Nc2c(Br)cc(I)cc21 (stereo not drawn) records pIC50 of 5 or higher.
False

Assess whether reported pIC50 for COc1ccc(C2Nc3ccc(Br)cc3C(C)=[N+]2[O-])cc1 (stereo not drawn) sits at 5 or higher.
False

Could you verify whether the entry COc1ccc(C2Nc3ccc(I)cc3C(C)=[N+]2[O-])cc1 (stereo not drawn) shows pIC50 of no less than 5?
False

###

Tested on: lung cancer (A549) cell line
assay overview: MTT cytotoxicity assay, A549
experimental context: Conc. 50 (µM per method); Table S3
Quick reference for Cell viability percentage, A549 among some compounds

Some compounds with known Cell viability percentage, A549 results, for comparison:
COc1ccc(C2Nc3c(I)cc(Br)cc3C(C)=[N+]2[O-])cc1 (centres unmarked)	45,4944%
CC1=[N+]([O-])C(c2ccc(Cl)cc2)Nc2ccc(I)cc21 (racemic)	33,0296%
CC1=[N+]([O-])C(c2ccc(Cl)cc2)Nc2c(I)cc(Br)cc21 (centres unmarked)	32,6808%
CC1=[N+]([O-])C(c2ccccc2)Nc2c(Br)cc(I)cc21 (centres unmarked)	30,0709%

Kindly review the next compound as well.
Record CC1=[N+]([O-])C(c2ccc(F)cc2)Nc2c(Br)cc(I)cc21 (centres unmarked) , field Cell viability percentage, A549: 30,3521%

###

System: breast cancer (MCF-7) cell line
assay overview: MTT cytotoxicity assay, MCF-7
experimental context: Conc. 10 (µM per method); Table S2
quantity kind: Cell viability percentage, MCF-7

Known Cell viability percentage, MCF-7 results, listed for orientation:
CC1=[N+]([O-])C(c2ccc(F)cc2)Nc2c(Br)cc(I)cc21 (centres unmarked)	31,9528%
COc1ccc(C2Nc3ccc(Br)cc3C(C)=[N+]2[O-])cc1 (centres unmarked)	44,0286%
CC1=[N+]([O-])C(c2ccc(Cl)cc2)Nc2ccc(I)cc21 (racemic)	36,5769%
CC1=[N+]([O-])C(c2ccccc2)Nc2ccc(Br)cc21 (centres unmarked)	23,187%

Switching to the query record.
Measured Cell viability percentage, MCF-7, COc1ccc(C2Nc3c(Br)cc(I)cc3C(C)=[N+]2[O-])cc1 (centres unmarked) : 59,2339%

###

Measured Cell viability percentage, MCF-7 accompanies every entry in the list below.
Test system: breast cancer (MCF-7) cell line
assay overview: MTT cytotoxicity assay, MCF-7
experimental context: Conc. 5 (µM per method); Table S2

Example entries begin here.
CC1=[N+]([O-])C(c2ccc(F)cc2)Nc2c(Br)cc(I)cc21 (stereo not shown)	33,2335%
CC1=[N+]([O-])C(c2ccccc2)Nc2ccc(Br)cc21 (stereo not shown)	26,1144%
CC1=[N+]([O-])C(c2ccc(Cl)cc2)Nc2ccc(I)cc21 (racemic)	37,841%

Turning now to a further record.
Reading of Cell viability percentage, MCF-7 for COc1ccc(C2Nc3ccc(I)cc3C(C)=[N+]2[O-])cc1 (stereo not shown) with breast cancer (MCF-7) cell line: 44,5775%

###

viability at 10 µM overview
assay overview: MTT cytotoxicity assay, HEK293-T
experimental context: human, HEK293-T cells

// below: answered compounds
CC1=[N+]([O-])C(c2ccc(F)cc2)Nc2ccc(Br)cc21 (stereo not shown)	40.3%
CC1=[N+]([O-])C(c2ccccc2)Nc2ccc(I)cc21 (stereo not shown)	40%
CC1=[N+]([O-])C(c2ccc(Cl)cc2)Nc2ccc(Br)cc21 (stereo not shown)	50.3%

Noted for CC1=[N+]([O-])C(c2ccccc2)Nc2c(Br)cc(I)cc21 (stereo not shown) : its viability at 10 µM reads 51.1%

###

Tested on: breast cancer (MCF-7) cell line
assay overview: MTT cytotoxicity assay, MCF-7
experimental context: Conc. 50 (µM per method); Table S2
# Cell viability percentage, MCF-7 annotations

Study these solved cases before continuing.
CC1=[N+]([O-])C(c2ccc(Cl)cc2)Nc2ccc(Br)cc21 (centres unmarked)	37,2256%
CC1=[N+]([O-])C(c2ccc(Cl)cc2)Nc2ccc(I)cc21 (racemic)	33,9155%
CC1=[N+]([O-])C(c2ccc(Cl)cc2)Nc2c(Br)cc(I)cc21 (centres unmarked)	23,0428%
CC1=[N+]([O-])C(c2ccc(F)cc2)Nc2c(Br)cc(I)cc21 (centres unmarked)	30,1896%

Value of measured Cell viability percentage, MCF-7 for the entry COc1ccc(C2Nc3c(Br)cc(I)cc3C(C)=[N+]2[O-])cc1 (centres unmarked) : 27,8817%

Summary for this molecule, CC1=[N+]([O-])C(c2ccc(F)cc2)Nc2ccc(Br)cc21 (centres unmarked) : Cell viability percentage, MCF-7 is 30,3061%

Lookup result for CC1=[N+]([O-])C(c2ccc(Cl)cc2)Nc2c(I)cc(Br)cc21 (centres unmarked) ; measured Cell viability percentage, MCF-7: 38,1737%

###

assay overview: DPPH radical scavenging assay
experimental context: mean ± SD; 45 min in the dark; 512 nm
quantity kind: IC50 (µM)
Kindly answer with a numeric value in µM, unit omitted.

CC1=[N+]([O-])C(c2ccccc2)Nc2c(Br)cc(I)cc21 (stereo not drawn)	8.88

For this molecule ( CC1=[N+]([O-])C(c2ccc(F)cc2)Nc2ccc(Br)cc21 (stereo not drawn) ), measured IC50 is 1.07

Reported IC50 of COc1ccc(C2Nc3c(Br)cc(I)cc3C(C)=[N+]2[O-])cc1 (stereo not drawn) : 60

CC1=[N+]([O-])C(c2ccccc2)Nc2c(I)cc(Br)cc21 (stereo not drawn) has a reported IC50 of 1.04

###

assay overview: MTT cytotoxicity assay, HEK293-T
experimental context: human, HEK293-T cells
Listed here: items and their measured viability at 25 µM.
Your answer should be a plain number; it is taken to be in %.

Use these answered entries as a reference point.
COc1ccc(C2Nc3ccc(Br)cc3C(C)=[N+]2[O-])cc1 (stereo not drawn) [Compound 3d]	30.6
CC1=[N+]([O-])C(c2ccc(F)cc2)Nc2c(Br)cc(I)cc21 (stereo not drawn) [Compound 3n]	39.6

// moving on: another record for viability at 25 µM
Measured viability at 25 µM of COc1ccc(C2Nc3ccc(I)cc3C(C)=[N+]2[O-])cc1 (stereo not drawn) [Compound 3h] : 29.7

###

System: breast cancer (MCF-7) cell line
assay overview: MTT cytotoxicity assay, MCF-7
experimental context: Conc. 10 (µM per method); Table S2
Each entry below carries its reported Cell viability percentage, MCF-7.

Form field Cell viability percentage, MCF-7, entry CC1=[N+]([O-])C(c2ccccc2)Nc2ccc(I)cc21 (stereo not drawn) [Compound 3e] : 23,6194%

Noted for CC1=[N+]([O-])C(c2ccc(Cl)cc2)Nc2c(I)cc(Br)cc21 (stereo not drawn) [Compound 3k] : its Cell viability percentage, MCF-7 reads 39,6041%

Noted for CC1=[N+]([O-])C(c2ccc(F)cc2)Nc2ccc(I)cc21 (stereo not drawn) [Compound 3f] : its Cell viability percentage, MCF-7 reads 44,9558%

Value of Cell viability percentage, MCF-7 reported for the compound CC1=[N+]([O-])C(c2ccc(F)cc2)Nc2c(I)cc(Br)cc21 (stereo not drawn) [Compound 3j] is 40,413%

For this compound ( CC1=[N+]([O-])C(c2ccc(Cl)cc2)Nc2ccc(Br)cc21 (stereo not drawn) [Compound 3c] ), measured Cell viability percentage, MCF-7 is 42,5981%

Entry CC1=[N+]([O-])C(c2ccccc2)Nc2c(Br)cc(I)cc21 (stereo not drawn) [Compound 3m] ; Cell viability percentage, MCF-7 = 20,9415%

GET /value?item= COc1ccc(C2Nc3c(I)cc(Br)cc3C(C)=[N+]2[O-])cc1 (stereo not drawn) [Compound 3l] &field=Cell viability percentage, MCF-7 returns 51,5919%

Quick note, Cell viability percentage, MCF-7 for CC1=[N+]([O-])C(c2ccc(Cl)cc2)Nc2c(Br)cc(I)cc21 (stereo not drawn) [Compound 3o] landed at 39,6041%

Lookup result for CC1=[N+]([O-])C(c2ccc(F)cc2)Nc2ccc(Br)cc21 (stereo not drawn) [Compound 3b] ; measured Cell viability percentage, MCF-7: 35,1963%
